B1: HDV Ribozyme (parent)
chain: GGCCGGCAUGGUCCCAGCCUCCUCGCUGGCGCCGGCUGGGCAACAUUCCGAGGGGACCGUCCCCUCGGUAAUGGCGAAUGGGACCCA

Variants of: B1
Test: self-cleavage, relative activity (ratio to wild type); higher = more cleavage; co-transcriptional
QUANTITY KIND: self-cleavage
Give only the figure.

// worked examples, self-cleavage included
SEQUENCE CONTENT	REPORTED MEASUREMENT
GGCCGGCAUGGUCCCAGCCUCCUCGCUGGCGCCGGCUGGGCAACAUUCCGAGGGGACCGUCCCCUCGAUAUUGGCGAAUGGGACCCA [G68A A71U]	0.867
GGCCGGCAUGGUCCCAGCCUCCUCGCUGGCGCCGGAUGGGCAACGUUCCGAGGGGACCGUCCCCUCGGUAAUGGCGAAUGGGACCCA [C36A A45G]	0.256
GGCCGGCAUGGUCCCAGCCUCCUGGCUAGCGCCGGCUGGGCAACAUUCCGAGGGGACCGUCCCCUCGGUAAUGGCGAAUGGGACCCA [C24G G28A]	0.148
GGCCGGCAUGGUCCCAGCCUCCUCGCUGGCGCCGGCUGGGCCACAUUCUGAGGGGACCGUCCCCUCGGUAAUGGCGAAUGGGACCCA [A42C C49U]	0.115
GGCCGACAUGGUCCCAGCCUCCUCGCUGGCGCCGGCGGGGCAACAUUCCGAGGGGACCGUCCCCUCGGUAAUGGCGAAUGGGACCCA [G6A U37G]	0.128

Quick one: self-cleavage of GGCCGGCAUGGUCCCUGCCUCCUCGCUGGCGCCGGCUGGGCAACAUUCCGAGGGGACCGUCCCCUCGGUAAUUGCGAAUGGGACCCA [A16U G73U] ? 0.237

Quick one: self-cleavage of GGCCGGCAUGGUCCCAGCCUCCUCGCUGGCGCCGGCUGGGCAACAUUCCGAGGGGACCGCCCCCUCGGUAUUGGCGAAUGGGACCCA [U60C A71U] ? 0.665

Quick one: self-cleavage of GGCCGGCAUGGUCCCAGCCUCCUCGCUGGCGCCGGCUGGGCAACAUUCCGAGGAGAACGUCCCCUCGGUAAUGGCGAAUGGGACCCA [G54A C57A] ? 0.818

Quick one: self-cleavage of GGCCGGCAUGGUCCCAGCCUCCUCGCUGGCGCCGGCUGGGCAACAUUGUGAGGGGACCGUCCCCUCGGUAAUGGCGAAUGGGACCCA [C48G C49U] ? 1.08

Quick one: self-cleavage of GGCCGGCCUGGUCCCAGCCUCCUCGCUGGCGCCGGCUGGGCAACAUUCCGAGGGGACCGUCCCCUCGGUAAUGGCGAUUGGGACCCA [A8C A78U] ? 0.119

Quick one: self-cleavage of GGCCGGCAUGGUCCCAGCCUCCUCGCUGGCGCCGGCUGGGCAACAUUACGAGGGGACCGUCCCCCCGGUAAUGGCGAAUGGGACCCA [C48A U65C] ? 0.98

Source of measurements: the RNAGym collection of RNA variant scans (doi:10.7554/elife.80360)
